Test system: E28 (patient-derived glioblastoma stem cells of classical subtype);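 further: cell Painting imaging in 384-well plates, CellProfiler features reduced to at least 20 principal components, Euclidean distance versus same-plate DMSO vehicle wells (0.1% v/v), median over six images per well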
Assay: phenotypic distance (Euclidean, principal components) from DMSO controls (arbitrary units); higher = stronger morphological change
Details: 3000 nM; exposure time: 72 h
Where a name gives a salt, the structure may show the parent alone.
Value kind: phenotypic distance
I'd appreciate a reply containing only the number, no unit.

Known results for molecules:
# Molecule, Meas value
measured = [
    ("O=C(O)c1ccc(-c2c[nH]c3ncc(-c4ccccc4)cc23)cc1C1CCCC1", 2.4),
    ("CC(C)C[C@H](NC(=O)[C@H](Cc1ccccc1)C[C@@H](O)[C@H](Cc1ccccc1)NC(=O)OC(C)(C)C)C(=O)N[C@@H](Cc1ccccc1)C(N)=O", 0.756),
    ("CSc1ccc2c(c1)N(CCC1CCCCN1C)c1ccccc1S2 (stereo not drawn) [Thioridazine hydrochloride]", 0.589),
    ("O=C1CC[C@@H](C(=O)N2CSC[C@H]2C(=O)O)N1", 0.608),
    ("CC(C)C[C@H](NC(=O)CNC(=O)c1cc(Cl)ccc1Cl)B(O)O", 5.85),
    ("Nc1nc(=O)c2nc(CNc3ccc(C(=O)N[C@@H](CCC(=O)O)C(=O)O)cc3)cnc2[nH]1", 0.583),
    ("CCn1cc(C(=O)O)c(=O)c2cc(F)c(N3CCNCC3)nc21", 0.546),
]

Query string: Can you share its phenotypic distance? I mean this molecule: Cc1ccc(NC(=O)c2ccc3c(c2)OCCO3)cc1NC(=O)c1ccc2nc(OCCN3CCCC3)ccc2c1
Result string: 2.42
